- Test system: H. pylori flaA-luciferase reporter strain N6
- PROTOCOL TEXT: microbe, parasite or virus in culture
- Type: cell-based, Helicobacter pylori
- SETTINGS: H. pylori flaA-luciferase reporter strain N6, Table 6
Consider the following compounds; for each one, report its IC50.
One number for each entry, in µg/mL.

[
  {
    "COMPOUND": "Cn1c(CS)c(Br)c(=O)n1-c1ccccc1 [DJ-2]",
    "IC50 / µg/mL": 0.44
  }
]

The reported IC50 of the compound Cn1c(CSC(=N)N)c(Cl)c(=O)n1-c1ccccc1 [Active 2] was 2.75
